# STUDY_TARGET: Recombinant Human CTLA4-Fc chimera (R&D systems) (human) (UniProt P16410)
# ASSAY_SUMMARY: ELISA, signal over SA
REPORTED_ENDPOINT: ELISA S/N(SA)

{"columns": ["BINDER", "ELISA S/N(SA)"],
 "data": [
  ["GGCWHPYLPIVSWHFCSR (peptide, not shown: large carriers; small tags and cut ends) [C4m#19-5th4w-NN6-51]", 22.1]
]}

[a] GGCMHPFLPIKSSHFCRK (peptide, not shown: large carriers; small tags and cut ends) [C4m#19-5th4w-NN6-6]
[b] GGCLHPWLPIVSVHFCAR (peptide, not shown: large carriers; small tags and cut ends) [C4m#19-5th4w-NN6-69-3]
Of a versus b , which is the one with smaller reported ELISA S/N(SA)? Mark your selection by writing its label. a
(a: 16.1, b: 24.9)
